Tested on: Trypanosoma cruzi
assay: Binding affinity to Trypanosoma cruzi type I nitro reductase at 10 uM incubated for 5 mins in the presence of NADH by microplate reader analysis
Each record here notes measured Kobs.
Lab book: enter the figure in s⁻¹, no units written.

smi | testedTarget | Kobs (s⁻¹)
CN1CCN(c2ccc(-c3cc(Cn4ccnc4[N+](=O)[O-])on3)cc2)CC1 | Trypanosoma cruzi | 0.21

Input line: For the molecule "O=[N+]([O-])c1ccc(-c2cc(Cn3ccnc3[N+](=O)[O-])on2)o1" , what Kobs is on record?
Output line: 0.75

Input line: For the molecule "CN(C)c1ccc(-c2cc(Cn3ccnc3[N+](=O)[O-])on2)cc1" , what Kobs is on record?
Output line: 0.24

Input line: For the molecule "CCN1CCN(c2ccc(-c3cc(Cn4ccnc4[N+](=O)[O-])on3)cc2)CC1" , what Kobs is on record?
Output line: 0.23

Input line: For the molecule "O=C(Cn1ccnc1[N+](=O)[O-])NCc1ccccc1" , what Kobs is on record?
Output line: 0.13

Input line: For the molecule "O=[N+]([O-])c1nccn1Cc1cc(-c2ccc(O)cc2)no1" , what Kobs is on record?
Output line: 0.47

Input line: For the molecule "COc1ccc(-c2cc(Cn3ccnc3[N+](=O)[O-])on2)cc1OC" , what Kobs is on record?
Output line: 0.57

Input line: For the molecule "COc1ccc(-c2cc(Cn3ccnc3[N+](=O)[O-])on2)cc1[N+](=O)[O-]" , what Kobs is on record?
Output line: 0.54

* * *

assay: Selectivity index, ratio of CC50 for cytotoxicity against monkey LLC-MK2 cells to IC50 for antileishmanial activity against Leishmania amazonensis IFLA/BR/1967/PH8 amastigotes infected in mouse peritoneal macrophage
Format: toxicity, cell-based
conditionNotes: read-out: Ratio CC50/IC50
measurementType: selectivity ratio

Examples from the recorded data:
smi | measurementType | obsValue
COc1ccc(-c2cc(Cn3ccnc3[N+](=O)[O-])on2)cc1O | selectivity ratio | > 2.9
COc1cc(OC)c(Cl)c(-c2cc(Cn3ccnc3[N+](=O)[O-])on2)c1 | selectivity ratio | > 22.6

Continue with the next compound.
Input line: For the compound "O=[N+]([O-])c1nccn1Cc1cc(-c2ccc(N3CCN(CCO)CC3)cc2)no1" , what selectivity ratio is on record?
Output line: > 8.8

* * *

assay: Selectivity index, ratio of CC50 for monkey LLC-MK2 cells to IC50 for Trypanosoma cruzi Tulahuen lacZ expressing beta-galactosidase amastigotes infected monkey LLC-MK2 cells
Assay type: toxicity
conditionNotes: read-out: Ratio CC50/IC50
Each record here notes measured selectivity ratio.

smi | measurementType | obsValue
CN1CCCN(c2ccc(-c3cc(Cn4ccnc4[N+](=O)[O-])on3)cc2)CC1 | selectivity ratio | > 32
COc1ccc(-c2cc(Cn3ccnc3[N+](=O)[O-])on2)cc1OC | selectivity ratio | > 200
O=[N+]([O-])c1nccn1Cc1cc(-c2ccc(N3CCOCC3)cc2)no1 | selectivity ratio | > 18
O=[N+]([O-])c1cccc(-c2cc(Cn3ccnc3[N+](=O)[O-])on2)c1 | selectivity ratio | > 9.4
Cc1ccc(-c2cc(Cn3ccnc3[N+](=O)[O-])on2)cc1[N+](=O)[O-] | selectivity ratio | > 1.5
COc1ccc(-c2cc(Cn3ccnc3[N+](=O)[O-])on2)cc1[N+](=O)[O-] | selectivity ratio | > 2.1
COc1ccc(-c2cc(Cn3ccnc3[N+](=O)[O-])on2)cc1O | selectivity ratio | > 16.6
O=[N+]([O-])c1nccn1Cc1cc(-c2ccc(N3CCN(c4ccccc4)CC3)cc2)no1 | selectivity ratio | > 1

Input line: For the molecule "O=C(Cn1ccnc1[N+](=O)[O-])NCc1ccccc1" , what selectivity ratio is on record?
Output line: > 9.3

Input line: For the molecule "CN(C)c1ccc(-c2cc(Cn3ccnc3[N+](=O)[O-])on2)cc1" , what selectivity ratio is on record?
Output line: > 21.2

* * *

Test system: Leishmania amazonensis
assay: Antileishmanial activity against Leishmania amazonensis IFLA/BR/1967/PH8 amastigotes infected in mouse peritoneal macrophage assessed as inhibition of parasite growth pre-infected in cells for 4 hrs followed by compound addition and measured after 24 hrs by Giemsa staining based analysis
Format: functional, organism-based
conditionNotes: IFLA/BR/1967/PH8, Peritoneal macrophage
Each record here notes measured IC50.
Lab book: enter the figure in µM, no units written.

Examples from the recorded data:
smi | testedTarget | IC50, µM
COc1ccccc1-c1cc(Cn2ccnc2[N+](=O)[O-])on1 | Leishmania amazonensis | 12.7
O=[N+]([O-])c1nccn1Cc1cc(-c2ccc(C(F)(F)F)cc2)no1 | Leishmania amazonensis | 18
O=[N+]([O-])c1nccn1Cc1cc(-c2ccc(Cl)c(Cl)c2)no1 | Leishmania amazonensis | 18.9
O=[N+]([O-])c1nccn1Cc1cc(-c2ccc(N3CCCC3)cc2)no1 | Leishmania amazonensis | 9.9
O=[N+]([O-])c1nccn1Cc1cc(-c2cccnc2)no1 | Leishmania amazonensis | 73.8

Continue with the next compound.
Input line: For the compound "Cc1ccc(-c2cc(Cn3ccnc3[N+](=O)[O-])on2)cc1" , what IC50 is on record?
Output line: 26.7

* * *

assay: Cytotoxicity against monkey LLC-MK2 cells incubated for 72 hrs by MTT assay
Type: toxicity, cell-based, Macaca mulatta
conditionNotes: rhesus monkey
Each record here notes measured CC50 at 72 h.

compound | obsValue
O=[N+]([O-])c1nccn1Cc1cc(-c2ccc(N3CCCCCC3)cc2)no1 | > 50 µM
O=[N+]([O-])c1nccn1Cc1cc(-c2ccc(F)c(F)c2)no1 | > 50 µM
CN1CCN(c2ccc(-c3cc(Cn4ccnc4[N+](=O)[O-])on3)cc2)CC1 | > 50 µM

Input line: For the compound "O=[N+]([O-])c1nccn1Cc1cc(-c2ccc(Cl)cc2Cl)no1" , what CC50 at 72 h is on record?
Output line: 43.2 µM

Input line: For the compound "O=[N+]([O-])c1nccn1Cc1cc(-c2ccc(Br)cc2)no1" , what CC50 at 72 h is on record?
Output line: 43 µM

Input line: For the compound "COc1ccc(-c2cc(Cn3ccnc3[N+](=O)[O-])on2)cc1O" , what CC50 at 72 h is on record?
Output line: > 50 µM

Input line: For the compound "O=[N+]([O-])c1nccn1Cc1cc(-c2cccc(Cl)c2)no1" , what CC50 at 72 h is on record?
Output line: > 50 µM

Input line: For the compound "O=[N+]([O-])c1nccn1Cc1cc(-c2ccc(N3CCN(c4ccccc4)CC3)cc2)no1" , what CC50 at 72 h is on record?
Output line: > 50 µM

Input line: For the compound "Nc1ccc(-c2cc(Cn3ccnc3[N+](=O)[O-])on2)cc1" , what CC50 at 72 h is on record?
Output line: > 50 µM

Input line: For the compound "COc1ccc(-c2cc(Cn3ccnc3[N+](=O)[O-])on2)cc1" , what CC50 at 72 h is on record?
Output line: > 50 µM

Input line: For the compound "O=[N+]([O-])c1ccc(-c2cc(Cn3ccnc3[N+](=O)[O-])on2)o1" , what CC50 at 72 h is on record?
Output line: > 50 µM

* * *

assay: Selectivity index, ratio of CC50 for cytotoxicity against monkey LLC-MK2 cells to IC50 for antileishmanial activity against Leishmania amazonensis IFLA/BR/1967/PH8 amastigotes infected in mouse peritoneal macrophage
Assay type: toxicity, cell-based
conditionNotes: read-out: Ratio CC50/IC50
measurementType: selectivity ratio

Examples from the recorded data:
smi | selectivity ratio
O=[N+]([O-])c1nccn1Cc1cc(-c2ccc(F)c(F)c2)no1 | > 2.8
O=[N+]([O-])c1nccn1Cc1cc(-c2ccccc2)no1 | > 1.5
O=[N+]([O-])c1nccn1Cc1cc(-c2ccc(N3CCOCC3)cc2)no1 | > 0.9
CSc1ccc(-c2cc(Cn3ccnc3[N+](=O)[O-])on2)cc1 | > 2.2
O=[N+]([O-])c1ccc(-c2cc(Cn3ccnc3[N+](=O)[O-])on2)cc1 | 1.4
CCN1CCN(c2ccc(-c3cc(Cn4ccnc4[N+](=O)[O-])on3)cc2)CC1 | > 9
O=[N+]([O-])c1nccn1Cc1cc(-c2ccc(Br)cc2)no1 | > 2.5
COc1cc(-c2cc(Cn3ccnc3[N+](=O)[O-])on2)cc(OC)c1OC | > 3.4
CN1CCCN(c2ccc(-c3cc(Cn4ccnc4[N+](=O)[O-])on3)cc2)CC1 | > 21.3
CN1CCN(c2ccc(-c3cc(Cn4ccnc4[N+](=O)[O-])on3)cc2)CC1 | > 3.2

Input line: For the molecule "COc1ccc(-c2cc(Cn3ccnc3[N+](=O)[O-])on2)cc1OC" , what selectivity ratio is on record?
Output line: > 2.5

Input line: For the molecule "O=[N+]([O-])c1nccn1Cc1cc(-c2ccc(N3CCN(c4ccccc4)CC3)cc2)no1" , what selectivity ratio is on record?
Output line: > 0.5

Input line: For the molecule "CC(C)N1CCN(c2ccc(-c3cc(Cn4ccnc4[N+](=O)[O-])on3)cc2)CC1" , what selectivity ratio is on record?
Output line: > 10.6

Input line: For the molecule "Cc1ccc(-c2cc(Cn3ccnc3[N+](=O)[O-])on2)cc1[N+](=O)[O-]" , what selectivity ratio is on record?
Output line: > 15.3

Input line: For the molecule "O=[N+]([O-])c1nccn1Cc1cc(-c2cccc(Cl)c2)no1" , what selectivity ratio is on record?
Output line: > 4.9

Input line: For the molecule "COc1ccc(-c2cc(Cn3ccnc3[N+](=O)[O-])on2)cc1[N+](=O)[O-]" , what selectivity ratio is on record?
Output line: > 3.3

Input line: For the molecule "COc1ccc(-c2cc(Cn3ccnc3[N+](=O)[O-])on2)cc1" , what selectivity ratio is on record?
Output line: > 2.9

Input line: For the molecule "O=[N+]([O-])c1nccn1Cc1cc(-c2ccccn2)no1" , what selectivity ratio is on record?
Output line: > 1.3

Input line: For the molecule "COc1cc(OC)cc(-c2cc(Cn3ccnc3[N+](=O)[O-])on2)c1" , what selectivity ratio is on record?
Output line: > 4.9

Input line: For the molecule "COc1ccccc1-c1cc(Cn2ccnc2[N+](=O)[O-])on1" , what selectivity ratio is on record?
Output line: > 3.9

Input line: For the molecule "N#Cc1cccc(-c2cc(Cn3ccnc3[N+](=O)[O-])on2)c1" , what selectivity ratio is on record?
Output line: > 1.4
